Target: T1, hTRMT2A FL (WT) (Homo sapiens, UniProt Q8IZ69 1-625)
T1 sequence: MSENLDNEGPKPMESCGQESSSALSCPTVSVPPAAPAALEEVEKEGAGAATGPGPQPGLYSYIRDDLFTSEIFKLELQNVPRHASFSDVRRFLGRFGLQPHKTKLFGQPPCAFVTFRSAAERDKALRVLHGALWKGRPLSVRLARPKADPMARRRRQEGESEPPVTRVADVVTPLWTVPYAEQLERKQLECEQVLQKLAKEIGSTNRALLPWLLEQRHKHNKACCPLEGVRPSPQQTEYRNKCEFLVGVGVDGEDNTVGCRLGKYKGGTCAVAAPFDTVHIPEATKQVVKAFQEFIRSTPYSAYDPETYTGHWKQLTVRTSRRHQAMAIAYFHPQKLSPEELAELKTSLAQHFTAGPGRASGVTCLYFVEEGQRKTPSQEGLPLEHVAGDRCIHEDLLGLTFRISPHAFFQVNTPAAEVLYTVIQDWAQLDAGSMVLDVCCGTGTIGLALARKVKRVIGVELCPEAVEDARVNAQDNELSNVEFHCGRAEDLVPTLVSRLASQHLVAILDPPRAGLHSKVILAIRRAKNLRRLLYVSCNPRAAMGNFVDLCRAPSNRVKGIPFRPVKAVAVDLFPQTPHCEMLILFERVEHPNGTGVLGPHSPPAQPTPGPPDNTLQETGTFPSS
Experiment: SPR; steady-state fit, apparent KD; EMSA: 50 mM HEPES-NaOH pH 7.5, 150 mM NaCl, 4% glycerol, 2.5 ng/ul poly(U), 5 nM RNA, 0-1.25 uM protein (final, as stated), 20 min room temperature; SPR: 150 mM NaCl, 50 mM HEPES-NaOH 7.5, 0.05% Tween, 25 C
Settings: protein: recombinant; tags: N-terminal His-SUMO tag cleaved; label: 3' biotin; tRNA cloverleaf
MEASURED_ATTRIBUTE: Kd (nM)
Return type: number; implicit unit nM.

Given the entry tRNAGln-TTG, 3' biotin (structured_RNA, 3' biotin) RNA: GGUCCCAUGGUGUAAUGGUUAGCACUCUGGACUUUGAAUCCAGCGAUCCGAGUUCAAAUCUCGGUGGGACCUCCA , report its measured Kd.
306
